Reported zone of inhibition at 50 µg/disc values for the following molecules.
System: Enterococcus faecalis
RUN_DESCRIPTION: Antibacterial activity against vancomycin-resistant Enterococcus faecalis 1528 R10 assessed as zone of inhibition at 50 ug/disc after 24 hrs by agar diffusion assay
Format: functional
CONDITION_PARAMETERS: 1528 R10, 24 h, read-out: IZ
REPORTED_PROPERTY: zone of inhibition at 50 µg/disc (mm)

INSERT INTO assay_data (molecule, target_of_assay, recorded_measurement) VALUES
  ('CCCCCC(O)/C=C/[N+]([O-])=N/[C@@H](COC)[C@H](C)O (stereo partly specified)', 'Enterococcus faecalis', 10),
  ('COC[C@H](/N=[N+]([O-])/C=C/CCCCC(C)=O)[C@H](C)O', 'Enterococcus faecalis', 0),
  ('CCCCCC/C=C\[N+]([O-])=N\[C@@H](COC)[C@H](C)O', 'Enterococcus faecalis', 0),
  ('COC[C@H](/N=[N+](\[O-])CCCCCCC(C)=O)[C@H](C)O', 'Enterococcus faecalis', 0),
  ('CCCCCCCC/[N+]([O-])=N/[C@@H](COC)[C@H](C)O', 'Enterococcus faecalis', 0),
  ('CCCCCCCC/[N+]([O-])=N/[C@@H](COC)C(N)=O', 'Enterococcus faecalis', 0);
